# SUBJECT_OF_TEST: Adenosine receptor A2a (Rattus norvegicus, UniProt P30543)
# Sequence (P30543 whole entry): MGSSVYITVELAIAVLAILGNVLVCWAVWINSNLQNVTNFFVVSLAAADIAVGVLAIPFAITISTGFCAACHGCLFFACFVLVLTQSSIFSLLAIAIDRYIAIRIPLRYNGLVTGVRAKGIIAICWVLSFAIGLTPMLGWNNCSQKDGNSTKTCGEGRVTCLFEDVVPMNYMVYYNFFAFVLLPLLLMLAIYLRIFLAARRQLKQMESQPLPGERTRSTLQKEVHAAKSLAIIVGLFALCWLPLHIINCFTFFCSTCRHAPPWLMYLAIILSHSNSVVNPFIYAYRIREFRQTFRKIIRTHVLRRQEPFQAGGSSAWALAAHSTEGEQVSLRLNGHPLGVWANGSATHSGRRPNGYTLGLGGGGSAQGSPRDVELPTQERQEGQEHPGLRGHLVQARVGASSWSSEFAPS
READOUT: Ki (µM)
Answers are plain numbers, in µM.

Ki for CCOC(=O)C1=C(c2ccccc2)N=C(C)/C(=C(/O)SCC)C1C#Cc1ccccc1 (stereo unspecified) is 5.15

----------
# SUBJECT_OF_TEST: Adenosine receptor A1 (Rattus norvegicus, UniProt P25099)
# Sequence (P25099 whole entry): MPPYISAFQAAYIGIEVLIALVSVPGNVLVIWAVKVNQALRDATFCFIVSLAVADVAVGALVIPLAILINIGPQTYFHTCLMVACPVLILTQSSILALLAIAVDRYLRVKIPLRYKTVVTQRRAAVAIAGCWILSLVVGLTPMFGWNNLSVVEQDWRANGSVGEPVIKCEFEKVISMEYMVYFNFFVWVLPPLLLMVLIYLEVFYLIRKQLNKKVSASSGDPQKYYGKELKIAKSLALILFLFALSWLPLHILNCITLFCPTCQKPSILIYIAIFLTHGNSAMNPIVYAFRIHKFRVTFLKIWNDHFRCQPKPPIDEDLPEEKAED
READOUT: pKi
One number for each entry, as −log10 of the molar value.

CCOCN1C(C)=C(C(=O)OCC)C(C#Cc2ccccc2)C(C(=O)O)=C1c1ccccc1 (stereo unspecified) has a reported pKi of 4.72

----------
Please respond with reported Displacement for every item in the list.
# SUBJECT_OF_TEST: Adenosine receptor A2a (Rattus norvegicus)
# ASSAY_OVERVIEW: Displacement of specific [3H]-CGS- 21680 binding at Adenosine A2A receptor in rat striatal membranes at the concentration of 10e-4 M
# Type: cell membranes
# CONDITION_SET: Membrane

// below: answered compounds
{"COMPOUND": "CCO/C(O)=C1\\C(CC)=NC(c2ccccc2)=C(C(=O)OCc2ccccc2)C1C#Cc1ccccc1 (stereo not given)", "Displacement": "< 10%"}
{"COMPOUND": "CCO/C(O)=C1\\C(C)=NC(c2ccccc2)=C(C(=O)OCc2ccccc2)C1C#Cc1ccccc1 (stereo not given)", "Displacement": "< 10%"}
{"COMPOUND": "CCOC(=O)C1=C(c2ccccc2)N=C(C)/C(=C(/O)OCC)C1c1ccccc1 (stereo not given)", "Displacement": "< 10%"}
{"COMPOUND": "CCO/C(O)=C1\\C(C)=NC(c2ccccc2)=C(C(=O)OCc2cccc([N+](=O)[O-])c2)C1C#Cc1ccccc1 (stereo not given)", "Displacement": "< 10%"}

Proceed to the following item.
Form: item CCOC(=O)C1=C(c2ccccc2)N=C(C)/C(=C(/O)OCC)C1C#Cc1cccc(C)c1 (stereo not given) ; test system Adenosine receptor A2a (Rattus norvegicus); Displacement: < 10%

----------
# SUBJECT_OF_TEST: Adenosine receptor A2a (Rattus norvegicus) (UniProt P30543)
# ASSAY_OVERVIEW: Displacement of specific [3H]-CGS- 21680 binding at adenosine A2A receptor in rat striatal membranes.
# Assay type: cell membranes
# Set-up: concentration or dose not given beside the values
# CONDITION_SET: Membrane; concentration not given here
READOUT: inhibition (%)
One number for each entry, in %.

Guide cases for inhibition, answers given:
{"MOLECULE": "CCO/C(O)=C1\\C(C)=NC(c2ccccc2)=C(C(=O)OCc2ccccc2C)C1C#Cc1ccccc1 (centres undefined)", "READOUT": "inhibition", "MEASURE_UNIT": "%", "ASSAY_RESULT": 13}
{"MOLECULE": "CCOCN1C(C)=C(C(=O)OCC)C(C#Cc2ccccc2)C(C(=O)O)=C1c1ccccc1 (centres undefined)", "READOUT": "inhibition", "MEASURE_UNIT": "%", "ASSAY_RESULT": 36}
{"MOLECULE": "C=CCO/C(O)=C1\\C(C)=NC(c2ccccc2)=C(C(=O)OCC)C1/C=C/c1ccc([N+](=O)[O-])cc1 (centres undefined)", "READOUT": "inhibition", "MEASURE_UNIT": "%", "ASSAY_RESULT": 15}
{"MOLECULE": "CCOC(=O)C1=C(C)N(COC)C(c2ccccc2)=C(C(=O)OCC[Si](C)(C)C)C1C#Cc1ccccc1 (centres undefined)", "READOUT": "inhibition", "MEASURE_UNIT": "%", "ASSAY_RESULT": 27}
{"MOLECULE": "CCO/C(O)=C1\\C(C)=NC(c2ccccc2)=C(C(=O)OC(C)(C)C)C1C#Cc1ccccc1 (centres undefined)", "READOUT": "inhibition", "MEASURE_UNIT": "%", "ASSAY_RESULT": 27}
{"MOLECULE": "CCNC(=O)C1=C(C)NC(c2ccccc2)=C(C(=O)OCC)C1C#Cc1ccccc1 (centres undefined)", "READOUT": "inhibition", "MEASURE_UNIT": "%", "ASSAY_RESULT": 19}
{"MOLECULE": "CCO/C(O)=C1\\C(C)=NC(c2ccccc2)=C(C(=O)OCC(OC)c2ccccc2)C1C#Cc1ccccc1 (centres undefined)", "READOUT": "inhibition", "MEASURE_UNIT": "%", "ASSAY_RESULT": 33}
{"MOLECULE": "CCOC(=O)C1=C(C)N=C(C)/C(=C(/O)OCC)C1c1cccs1 (centres undefined)", "READOUT": "inhibition", "MEASURE_UNIT": "%", "ASSAY_RESULT": 25}

--- query ---
Field inhibition (entry CCOC(=O)C1=C(c2ccccc2)N=C(C)/C(=C(/O)OCC)C1c1cccnc1 (centres undefined) ) reads 40
